The reported measurements were obtained from patent US20200207857A1.

biological target: Recombinant protein Claudin 18.2; experiment: ELISA on plate-coated recombinant Claudin 18.2, OD450; Kd table under the graph, no unit in the table, unit from the x axis log[antibody] nM
Sequence (chain, as listed by the source limits assumed, form in doubt): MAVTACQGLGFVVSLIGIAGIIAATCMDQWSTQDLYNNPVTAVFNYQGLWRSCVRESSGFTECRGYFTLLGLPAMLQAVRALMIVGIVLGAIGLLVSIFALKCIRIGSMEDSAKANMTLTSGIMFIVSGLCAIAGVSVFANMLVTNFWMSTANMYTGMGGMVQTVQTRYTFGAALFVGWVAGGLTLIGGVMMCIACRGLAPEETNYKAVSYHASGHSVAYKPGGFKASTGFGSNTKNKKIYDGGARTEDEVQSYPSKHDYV
measurement.label: pKd
The read-out pKd is expressed as -log10 of concentration in moles per litre.

In plain terms, h5C9n (antibody, V domains shown) VH: EVQLVESGGGLVQPGGSLRLSCAVSGYTFTNYGMNWVRQAPGKGLEWVAWINMYTGEPTYADDFKGRFTISRDDSKNTLYLQMNSLRAEDTAVYYCARLYNGNSLDYWGQGTLVTVSS VL: DIQMTQSPSSLSASVGDRVTITCKSSQSLLNSGNQKSYLTWYQQKPGKAPKLLIYWASTLESGVPSRFSGSGSGTDFTLTISSLQPEDFATYYCQNAYSFPFTFGQGTKVEIK has a documented pKd of 9.49

In plain terms, h5C9os (antibody, V domains shown) VH: EVQLVESGGGLVQPGGSLRLSCAVSGYTFSMNWVRQAPGKGLEWVAWINMYTGEPTYADDFKGRFTISRDDSKNTLYLQMNSLRAEDTAVYYCARTGTGNTMDYWGQGTLVTVSS VL: DIQMTQSPSSLSASVGDRVTITCKSSQSLLNSGNQKSYLTWYQQKPGKAPKLLIYWASTLESGVPSRFSGSGSGTDYTLTISSLQPEDFATYYCQNAYSFPFTFGQGTKVEIK has a documented pKd of 9.87

In plain terms, h5C9oaa (antibody, V domains shown) VH: EVQLVESGGGLVQPGGSLRLSCAVSGYTFSMNWVRQAPGKGLEWVAWINMYTGEPTYADDFKGRFTISRDDSKNTLYLQMNSLRAEDTAVYYCARLVRGNGMDYWGQGTLVTVSS VL: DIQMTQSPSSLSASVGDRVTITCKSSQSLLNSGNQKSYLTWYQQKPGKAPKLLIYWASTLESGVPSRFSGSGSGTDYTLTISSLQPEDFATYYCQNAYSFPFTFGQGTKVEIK has a documented pKd of 10.09
